Hey, just so you know, these numbers are from PubChem BioAssay (EPA / NIEHS).

Read-out: Secreted IgG (sIgG), gene 3500
test-description: BSK_BT_sIgG: BioMAP Diversity Plus: BT Assay for Secreted IgG (sIgG) Biomarker Activity (AID 2284226)
settings: primary human B cells with PBMC
Protocol: BSK_BT is a cell-based, multiplexed-readout assay that uses B cell and peripheral blood mononuclear cells, a human vascular primary cell co-culture, with measurements taken at 24 hours after chemical dosing in a microplate: 96-well plate.BSK_BT_sIgG is an assay component measured in the BSK_BT assay. […] Using a type of cytokine quantitation reporter, gain or loss-of-signal activity can be used to understand protein changes. […]
Activity calls are given as the source filed them. How the source made its calls: active means hit-call score of the fitted dose curve at least 0.9, where 1 is the maximum; inactive means score below 0.9.
Outcomes: active, inactive

molecule-smiles | label-value
O=S(=O)(O)C(F)(F)C(F)(F)C(F)(F)C(F)(F)C(F)(F)C(F)(F)F | inactive
O=C(O)C(F)(F)C(F)(F)C(F)(F)C(F)(F)C(F)(F)C(F)(F)C(F)(F)C(F)(F)C(F)(F)F | inactive
Oc1c(Cl)c(Cl)c(Cl)c(Cl)c1Cl | active
O=C(O)C(F)(F)C(F)(F)C(F)(F)C(F)(F)C(F)(F)F | inactive

---

Read-out: Pyruvate Dehydrogenase Kinase 4 (PDK4), PDK4 (gene 5166)
test-description: LTEA_HepaRG_PDK4: Life Technologies and Expression Analysis (LTEA) Assay for Pyruvate Dehydrogenase Kinase 4 (PDK4) using HepaRG (AID 2283525)
settings: mRNA level, 48 h; actives raise or lower the signal
Activity calls are given as the source filed them. The calls were made as follows: active = hit-call score of the fitted dose curve at least 0.9, where 1 is the maximum; inactive = score below 0.9.
Outcomes: active, inactive

molecule-smiles | label-value
c1cc2ccc3cccc4ccc(c1)c2c34 | inactive
CCC(C)(CC)c1cc(NC(=O)c2c(OC)cccc2OC)on1 | inactive
Oc1ccc(Cl)cc1Cl | inactive
Oc1ccc(C(c2ccc(O)cc2)(C(F)(F)F)C(F)(F)F)cc1 | inactive
CC(C)(c1ccccc1)c1ccc(O)cc1 | inactive
O=C(O)C(F)(F)C(F)(F)C(F)(F)C(F)(F)C(F)(F)C(F)(F)C(F)(F)C(F)(F)C(F)(F)F | active
CCCN(CCC)N=O | inactive
O=C(NC(=O)c1c(F)cccc1F)Nc1cc(Cl)c(OC(F)(F)C(F)F)c(Cl)c1 | inactive
Cc1cc2c3c(c1)C(c1ccccc1)=N[C@@H](NC(=O)c1ccncc1)C(=O)N3CC2 | active
CCCCCCCCCC[N+](C)(C)CCCCCCCCCC | active
Oc1c(Cl)c(Cl)c(Cl)c(Cl)c1Cl | inactive
C=CC(N)=O | inactive
COS(=O)(=O)OC | inactive

---

target-entity: X-box-binding protein 1 (Homo sapiens) (UniProt P17861)
Sequence (P17861 whole entry, looked up): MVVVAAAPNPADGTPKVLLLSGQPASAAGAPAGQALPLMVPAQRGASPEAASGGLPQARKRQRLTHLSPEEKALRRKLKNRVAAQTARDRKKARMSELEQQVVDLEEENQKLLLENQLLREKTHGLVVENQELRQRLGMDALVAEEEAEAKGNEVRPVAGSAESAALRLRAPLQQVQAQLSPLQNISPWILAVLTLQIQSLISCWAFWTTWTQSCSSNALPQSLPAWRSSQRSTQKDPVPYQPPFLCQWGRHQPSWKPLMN
test-description: ATG_Xbp1_CIS: Attagene CIS-FACTORIAL HepG2 Assay for human X-box Binding Protein 1 (XBP1) (AID 2282972)
settings: HepG2 XBP1 cis-element reporter, Attagene multiplex; actives raise or lower the signal
Activity calls are given as the source filed them. Rule for the calls: active = hit-call score of the fitted dose curve at least 0.9, where 1 is the maximum; inactive = score below 0.9.
Outcomes: active, inactive

compound | label-value
Sc1ccccc1 | inactive
C1CC2OC2CC1C1CO1 (stereo unspecified) | inactive
ClC1=C(Cl)[C@]2(Cl)[C@@H]3[C@@H]4C[C@@H]([C@H]5O[C@@H]45)[C@@H]3[C@@]1(Cl)C2(Cl)Cl | inactive
CCC(C)(CC)c1cc(NC(=O)c2c(OC)cccc2OC)on1 | inactive
Clc1ccc(C(Cl)(Cl)Cl)cc1 | inactive
O=C(O)C(F)(F)C(F)(F)C(F)(F)C(F)(F)C(F)(F)F | inactive
CCCCCCCCCC[N+](C)(C)CCCCCCCCCC | inactive
CC1=C2C[C@H]3[C@@H](CC=C4C[C@@H](O)CC[C@@]43C)[C@@H]2CC[C@]12O[C@@H]1C[C@H](C)CN[C@H]1[C@H]2C | inactive
OCC(O)CO | inactive
ClC1=C(Cl)[C@]2(Cl)[C@@H]3[C@@H](Cl)[C@H]4O[C@H]4[C@@H]3C1(Cl)C2(Cl)Cl | active
Cc1cccc(C)c1N | inactive
COc1ccc(O)c(C(C)(C)C)c1 | active
Cc1ccccc1O | inactive
O=S(=O)(O)C(F)(F)C(F)(F)C(F)(F)C(F)(F)F | inactive
CN(C)CCO | inactive
Cc1cccc([N+](=O)[O-])c1 | inactive
Oc1ccc(Cl)cc1Cl | inactive
C=CC(=O)NCNC(=O)C=C | inactive
C=CC(N)=O | inactive
O=NN(c1ccccc1)c1ccccc1 | inactive
CCC(C)c1cc([N+](=O)[O-])cc([N+](=O)[O-])c1O (stereo unspecified) | active
CC(c1ccc(O)cc1)(c1ccc(O)cc1)c1ccc(O)cc1 | active
Cc1ccccc1CO[C@@H]1C[C@@]2(C(C)C)CC[C@]1(C)O2 | inactive
CCOC(=O)C(O)(c1ccc(Cl)cc1)c1ccc(Cl)cc1 | inactive
Nc1ccc(-c2ccc(N)cc2)cc1 | inactive
COS(=O)(=O)OC | inactive

---

target-entity: Retinoic acid receptor RXR-alpha (Homo sapiens)
test-description: OT_NURR1_NURR1RXRa_1440: Odyssey Thera (OT) 24-hour HEK293T Protein Complementation Assay for Nurr1/retinoid X receptor (RXR) (AID 2283386)
Procedure: OT_NURR1_NURR1RXRa_1440 is a cell-based assay that uses HEK293T, a human kidney cell line, with measurements taken at 24 hours after chemical dosing in a 384-well plate.OT_NURR1_NURR1RXRa_1440 is one of one assay component(s) measured or calculated from the OT_NURR1_NURR1RXRa_1440 assay. […] This assay endpoint, OT_NURR1_NURR1RXRa_1440, was analyzed in the positive analysis fitting direction relative to DMSO as the negative control and baseline of activity. […]
Records with an inconclusive call do not appear. Activity calls are given as the source filed them. The calls were made as follows: active = hit-call score of the fitted dose curve at least 0.9, where 1 is the maximum; inconclusive = response in the unintended direction; inactive = score below 0.9.

compound | outcome
CC#Cc1cc(C)nc(Nc2ccccc2)n1 | inactive
Cc1ccccc1CO[C@@H]1C[C@@]2(C(C)C)CC[C@]1(C)O2 | inactive
NS(=O)(=O)C(F)(F)C(F)(F)C(F)(F)C(F)(F)C(F)(F)C(F)(F)C(F)(F)C(F)(F)F | inactive
CCCCCCCCOC(=O)c1ccccc1C(=O)OCCCCCCCC | inactive
ClC1=C(Cl)[C@]2(Cl)[C@@H]3[C@@H]4C[C@@H]([C@H]5O[C@@H]45)[C@@H]3[C@@]1(Cl)C2(Cl)Cl | inactive
C[C@]12CCC(=O)C=C1CC[C@@H]1[C@@H]2CC[C@]2(C)C(=O)CC[C@@H]12 | inactive
CCC(C)c1cc([N+](=O)[O-])cc([N+](=O)[O-])c1O (stereo unspecified) | inactive
C=CC(N)=O | inactive
COS(=O)(=O)OC | inactive
CCCCCCOC(=O)c1ccccc1C(=O)OCCCCCC | inactive
Oc1c(Cl)c(Cl)c(Cl)c(Cl)c1Cl | inactive

---

Read-out: Thrombomodulin, THBD (gene 7056)
test-description: BSK_3C_Thrombomodulin: BioMAP Diversity Plus: 3C Assay for Thrombomodulin Biomarker Activity (AID 2283029)
settings: primary human endothelial cells (HUVEC); actives raise or lower the signal
The source made the active and inactive calls. How the source made its calls: active means hit-call score of the fitted dose curve at least 0.9, where 1 is the maximum; inactive means score below 0.9.

molecule | AC50
Cc1ccc(O)c(C)c1 | inactive
CC(C)(c1ccccc1)c1ccc(O)cc1 | inactive
Cc1cc(O)ccc1Cl | inactive
C1CC2OC2CC1C1CO1 (stereo not given) | inactive
Oc1ccc(C(c2ccc(O)cc2)(C(F)(F)F)C(F)(F)F)cc1 | 21.3 µM (active)
CCSC(=O)N(CC)C1CCCCC1 | inactive
O=C(NC(=O)c1c(F)cccc1F)Nc1cc(Cl)c(OC(F)(F)C(F)F)c(Cl)c1 | inactive
O=NN(c1ccccc1)c1ccccc1 | inactive
CC(C)C(=O)OCC(C)(C)C(OC(=O)C(C)C)C(C)C (stereo not given) | inactive
CC(C)(O)C(=O)Nc1ccc([N+](=O)[O-])c(C(F)(F)F)c1 | inactive

---

test-description: ATG_XTT_Cytotoxicity: Cytotoxicity Assessment in the Attagene TRANS-FACTORIAL HepG2 Assay (AID 2283584)
Inconclusive results are not listed. Activity calls are given as the source filed them. The calls were made as follows: active = hit-call score of the fitted dose curve at least 0.9, where 1 is the maximum; inconclusive = response in the unintended direction; inactive = score below 0.9.
Outcomes: 1 for active, 0 for inactive

molecule-smiles | label-value
ClC1=C(Cl)[C@]2(Cl)[C@@H]3[C@@H](Cl)[C@H]4O[C@H]4[C@@H]3C1(Cl)C2(Cl)Cl | 0
CC(C)(c1ccccc1)c1ccc(O)cc1 | 0
Cc1ccccc1O | 0
CCC(=O)O[C@H]1CC[C@H]2[C@@H]3CCC4=CC(=O)CC[C@]4(C)[C@H]3CC[C@]12C | 0
CO/C=C(/C(=O)OC)c1ccccc1COc1cccc(C(F)(F)F)n1 | 0
Sc1ccccc1 | 0
Clc1ccc(C(Cl)(Cl)Cl)cc1 | 0
Cc1ccccc1[N+](=O)[O-] | 0
Nn1cnnc1 | 0
O=S(=O)(O)C(F)(F)C(F)(F)C(F)(F)C(F)(F)C(F)(F)C(F)(F)F | 0
ClC1=C(Cl)[C@]2(Cl)[C@@H]3[C@@H]4C[C@@H]([C@H]5O[C@@H]45)[C@@H]3[C@@]1(Cl)C2(Cl)Cl | 0
OCC(O)CO | 0
COc1ccc(O)c(C(C)(C)C)c1 | 0
CCCCCCCCCC[N+](C)(C)CCCCCCCCCC | 1
Cc1cc(O)ccc1Cl | 0
